# systemName: FGFR2 (Homo sapiens)
# Sequence (P21802 22-821): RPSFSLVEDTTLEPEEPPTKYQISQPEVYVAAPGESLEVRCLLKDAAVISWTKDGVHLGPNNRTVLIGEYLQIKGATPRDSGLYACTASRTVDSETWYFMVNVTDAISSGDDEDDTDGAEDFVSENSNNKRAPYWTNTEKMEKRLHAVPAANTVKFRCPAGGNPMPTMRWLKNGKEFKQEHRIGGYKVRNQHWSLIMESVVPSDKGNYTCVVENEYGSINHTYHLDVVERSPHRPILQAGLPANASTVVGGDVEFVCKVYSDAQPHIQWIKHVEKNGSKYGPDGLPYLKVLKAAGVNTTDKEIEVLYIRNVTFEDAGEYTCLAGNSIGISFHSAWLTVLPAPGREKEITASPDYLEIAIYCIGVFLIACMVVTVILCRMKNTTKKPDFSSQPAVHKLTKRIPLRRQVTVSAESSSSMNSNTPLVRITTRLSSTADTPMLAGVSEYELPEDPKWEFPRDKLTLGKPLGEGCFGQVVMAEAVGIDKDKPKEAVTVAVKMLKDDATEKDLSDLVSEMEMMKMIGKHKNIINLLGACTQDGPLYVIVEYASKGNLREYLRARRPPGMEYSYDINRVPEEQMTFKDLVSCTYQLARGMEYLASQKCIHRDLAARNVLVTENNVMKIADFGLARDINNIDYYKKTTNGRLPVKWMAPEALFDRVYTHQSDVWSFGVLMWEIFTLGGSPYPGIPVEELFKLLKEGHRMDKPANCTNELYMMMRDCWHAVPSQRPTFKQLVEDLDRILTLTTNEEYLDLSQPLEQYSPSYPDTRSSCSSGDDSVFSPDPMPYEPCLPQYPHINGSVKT
metricName: IC50

[in] // returns reported IC50 for input COCCNCc1ccc(-c2cc3nccc(Oc4ccc(NC(=O)C5(C(=O)Nc6ccc(F)cc6)CC5)cc4F)c3s2)nc1
[out] > 5 µM

---

# systemName: UniProt P29320
# Sequence (P29320 21-983): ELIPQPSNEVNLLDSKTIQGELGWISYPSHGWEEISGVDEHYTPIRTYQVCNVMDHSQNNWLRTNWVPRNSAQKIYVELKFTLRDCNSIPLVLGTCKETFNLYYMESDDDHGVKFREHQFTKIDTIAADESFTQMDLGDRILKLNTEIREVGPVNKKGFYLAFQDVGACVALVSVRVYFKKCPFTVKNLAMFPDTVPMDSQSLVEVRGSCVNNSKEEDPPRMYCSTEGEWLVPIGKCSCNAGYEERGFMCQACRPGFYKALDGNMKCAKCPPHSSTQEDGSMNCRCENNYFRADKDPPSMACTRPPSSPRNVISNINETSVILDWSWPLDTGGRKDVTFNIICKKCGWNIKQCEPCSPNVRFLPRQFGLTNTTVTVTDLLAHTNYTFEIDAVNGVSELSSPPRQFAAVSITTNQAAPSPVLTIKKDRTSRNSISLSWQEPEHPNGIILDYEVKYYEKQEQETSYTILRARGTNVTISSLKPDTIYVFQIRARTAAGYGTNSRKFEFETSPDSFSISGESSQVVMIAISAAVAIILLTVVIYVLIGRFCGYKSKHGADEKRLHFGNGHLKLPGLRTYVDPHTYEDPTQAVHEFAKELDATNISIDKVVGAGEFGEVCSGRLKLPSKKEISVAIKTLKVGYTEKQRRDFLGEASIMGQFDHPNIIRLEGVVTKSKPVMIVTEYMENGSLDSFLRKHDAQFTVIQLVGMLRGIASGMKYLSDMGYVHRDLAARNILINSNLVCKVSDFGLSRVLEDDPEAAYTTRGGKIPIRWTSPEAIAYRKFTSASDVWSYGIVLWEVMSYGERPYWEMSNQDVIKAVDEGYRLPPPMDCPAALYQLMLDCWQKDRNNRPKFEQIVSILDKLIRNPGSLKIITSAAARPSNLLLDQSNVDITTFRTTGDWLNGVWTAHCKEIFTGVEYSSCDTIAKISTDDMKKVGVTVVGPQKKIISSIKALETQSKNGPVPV
metricName: pIC50
Just so you know, pIC50 here is -log10 of the concentration in molar units; reply with that number alone.

[in] # input molecule: COCCNCc1ccc(-c2cc3nccc(Oc4ccc(NC(=O)C5(C(=O)Nc6ccc(F)cc6)CC5)cc4F)c3s2)nc1 ; wanted: its pIC50
[out] 9.00

---

# systemName: IGF1R (Homo sapiens)
# Sequence (P08069 31-1367): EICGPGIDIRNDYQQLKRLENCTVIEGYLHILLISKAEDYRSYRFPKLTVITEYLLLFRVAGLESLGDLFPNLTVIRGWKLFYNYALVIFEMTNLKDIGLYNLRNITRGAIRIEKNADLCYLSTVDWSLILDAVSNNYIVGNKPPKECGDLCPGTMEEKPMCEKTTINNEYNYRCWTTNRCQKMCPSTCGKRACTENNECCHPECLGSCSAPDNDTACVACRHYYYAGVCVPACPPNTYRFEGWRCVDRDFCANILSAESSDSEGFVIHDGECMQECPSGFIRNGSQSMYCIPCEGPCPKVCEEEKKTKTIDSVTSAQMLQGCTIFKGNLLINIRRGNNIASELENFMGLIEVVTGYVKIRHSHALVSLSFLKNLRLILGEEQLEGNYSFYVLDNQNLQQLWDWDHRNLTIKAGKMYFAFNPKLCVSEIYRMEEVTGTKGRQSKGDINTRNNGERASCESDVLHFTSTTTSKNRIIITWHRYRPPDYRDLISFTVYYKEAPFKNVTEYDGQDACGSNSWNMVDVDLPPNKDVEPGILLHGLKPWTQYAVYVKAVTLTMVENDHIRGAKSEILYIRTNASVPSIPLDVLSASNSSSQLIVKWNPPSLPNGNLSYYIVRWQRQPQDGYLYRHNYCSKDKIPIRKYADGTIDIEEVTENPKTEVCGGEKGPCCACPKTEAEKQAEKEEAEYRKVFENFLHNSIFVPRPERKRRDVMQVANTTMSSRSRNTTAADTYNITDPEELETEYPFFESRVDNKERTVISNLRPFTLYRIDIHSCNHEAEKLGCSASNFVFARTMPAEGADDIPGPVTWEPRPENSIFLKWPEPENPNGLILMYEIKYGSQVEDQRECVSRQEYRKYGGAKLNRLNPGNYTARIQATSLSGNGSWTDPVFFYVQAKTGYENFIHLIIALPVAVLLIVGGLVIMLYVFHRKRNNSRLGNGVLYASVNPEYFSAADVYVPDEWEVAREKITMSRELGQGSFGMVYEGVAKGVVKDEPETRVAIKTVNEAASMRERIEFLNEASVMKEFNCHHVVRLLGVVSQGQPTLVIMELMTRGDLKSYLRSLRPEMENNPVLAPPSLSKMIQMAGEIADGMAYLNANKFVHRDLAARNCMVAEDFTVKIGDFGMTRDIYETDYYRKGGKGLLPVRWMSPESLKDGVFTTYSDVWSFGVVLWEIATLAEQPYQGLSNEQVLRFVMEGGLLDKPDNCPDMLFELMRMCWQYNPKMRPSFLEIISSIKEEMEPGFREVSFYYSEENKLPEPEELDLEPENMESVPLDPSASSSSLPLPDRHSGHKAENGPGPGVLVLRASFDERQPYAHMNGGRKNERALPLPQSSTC
metricName: IC50 (µM)
# unit: µM | format: bare number

[in] I'd like to know its IC50. The compound in question is COCCNCc1ccc(-c2cc3nccc(Oc4ccc(NC(=O)C5(C(=O)Nc6ccc(F)cc6)CC5)cc4F)c3s2)nc1
[out] 3.98
